Assay Target: T1, hFc-tagged human 4-1BB extracellular domain protein (4-1BB-hFc) (human, UniProt Q07011 24-186, limits assumed)
T1 construct: also called immunogen A; 4-1BB^ECD-hFc; not shown: human IgG Fc fragment (hFc) of the pCpC vector
Protocol Text: ELISA, coated human 4-1BB-hFc; Ab 0.0032 ug/ml
Form field: OD450 nm (one value per entry).
Give the quantity in OD450 nm, number only.

11H10C9 (antibody, V domains shown) VH: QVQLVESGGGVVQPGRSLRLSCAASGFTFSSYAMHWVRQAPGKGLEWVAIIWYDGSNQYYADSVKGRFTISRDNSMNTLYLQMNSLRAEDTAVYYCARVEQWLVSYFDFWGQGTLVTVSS VL: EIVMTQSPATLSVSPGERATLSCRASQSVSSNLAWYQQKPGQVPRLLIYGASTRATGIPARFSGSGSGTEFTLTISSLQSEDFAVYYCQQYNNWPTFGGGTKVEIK
0.49
118F3A2 (antibody, V domains shown) VH: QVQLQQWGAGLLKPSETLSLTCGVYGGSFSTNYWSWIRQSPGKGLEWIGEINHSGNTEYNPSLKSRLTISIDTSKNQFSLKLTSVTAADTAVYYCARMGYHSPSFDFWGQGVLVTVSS VL: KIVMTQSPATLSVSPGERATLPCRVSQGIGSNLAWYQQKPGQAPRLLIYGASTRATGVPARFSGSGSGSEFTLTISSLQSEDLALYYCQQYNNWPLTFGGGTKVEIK
0.54
170D7F2 (antibody, V domains shown) VH: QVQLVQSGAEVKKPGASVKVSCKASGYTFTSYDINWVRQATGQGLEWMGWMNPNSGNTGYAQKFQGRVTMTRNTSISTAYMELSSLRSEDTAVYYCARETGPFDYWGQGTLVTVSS VL: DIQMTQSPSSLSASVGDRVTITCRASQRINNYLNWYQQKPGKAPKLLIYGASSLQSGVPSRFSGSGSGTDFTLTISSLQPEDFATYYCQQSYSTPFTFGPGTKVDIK
0.48
172E3E3 (antibody, V domains shown) VH: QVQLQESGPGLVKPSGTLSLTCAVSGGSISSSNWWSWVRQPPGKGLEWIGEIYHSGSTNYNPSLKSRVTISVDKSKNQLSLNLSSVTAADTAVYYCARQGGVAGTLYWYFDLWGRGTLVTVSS VL: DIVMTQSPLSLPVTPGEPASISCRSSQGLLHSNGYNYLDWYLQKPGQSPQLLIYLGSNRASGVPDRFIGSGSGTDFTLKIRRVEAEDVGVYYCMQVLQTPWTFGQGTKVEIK
0.51
119B6G5 (antibody, V domains shown) VH: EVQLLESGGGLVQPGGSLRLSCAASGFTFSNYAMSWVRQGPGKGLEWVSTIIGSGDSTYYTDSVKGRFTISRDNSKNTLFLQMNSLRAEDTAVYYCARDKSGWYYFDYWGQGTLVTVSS VL: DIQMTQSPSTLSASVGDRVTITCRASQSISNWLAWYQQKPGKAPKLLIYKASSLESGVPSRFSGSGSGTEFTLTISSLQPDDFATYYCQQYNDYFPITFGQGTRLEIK
0.33
52F4G2 (antibody, V domains shown) VH: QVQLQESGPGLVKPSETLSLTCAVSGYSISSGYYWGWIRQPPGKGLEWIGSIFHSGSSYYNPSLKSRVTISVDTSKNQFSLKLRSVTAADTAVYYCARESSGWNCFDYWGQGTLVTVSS VL: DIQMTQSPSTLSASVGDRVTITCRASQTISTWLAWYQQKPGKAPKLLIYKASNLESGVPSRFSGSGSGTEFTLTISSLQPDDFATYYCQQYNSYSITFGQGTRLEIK
0.89

Return reported OD450 nm; argument: 15G10D4 (antibody, V domains shown) VH: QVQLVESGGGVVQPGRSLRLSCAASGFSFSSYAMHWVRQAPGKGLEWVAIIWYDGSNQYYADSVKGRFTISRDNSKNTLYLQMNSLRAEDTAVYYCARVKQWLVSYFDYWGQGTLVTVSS VL: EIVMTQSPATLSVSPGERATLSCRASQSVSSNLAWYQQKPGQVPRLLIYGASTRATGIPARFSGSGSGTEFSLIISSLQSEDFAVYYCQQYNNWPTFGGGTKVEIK
0.52
